- targetSystem: YjdL Tyr21Phe (Escherichia coli, UniProt P39276, Y21F)
- Sequence (P39276 whole entry Y21F): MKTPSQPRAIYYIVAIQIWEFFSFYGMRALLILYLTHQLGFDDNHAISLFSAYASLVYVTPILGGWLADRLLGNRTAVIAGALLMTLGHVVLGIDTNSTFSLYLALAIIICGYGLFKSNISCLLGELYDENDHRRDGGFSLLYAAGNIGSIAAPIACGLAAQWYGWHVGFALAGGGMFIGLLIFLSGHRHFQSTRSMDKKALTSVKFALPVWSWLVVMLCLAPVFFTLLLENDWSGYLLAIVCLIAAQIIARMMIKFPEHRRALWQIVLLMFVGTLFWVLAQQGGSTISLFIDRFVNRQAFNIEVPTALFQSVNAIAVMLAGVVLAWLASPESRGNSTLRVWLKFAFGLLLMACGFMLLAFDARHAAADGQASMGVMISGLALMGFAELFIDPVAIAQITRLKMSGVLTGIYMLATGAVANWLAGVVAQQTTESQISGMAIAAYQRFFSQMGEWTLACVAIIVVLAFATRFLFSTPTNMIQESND
- measurementDescription: β-Ala-Lys(AMCA) uptake and inhibition assay, YjdL Tyr21Phe
- cond: 0.2 mM β-Ala-Lys(AMCA), 5 min incubation, pH 6.5; ±SEM, n≥3
Residues, ends and D or L forms follow the SMILES beside them.
assayReadout: pIC50
Field pIC50 (float): negative decimal logarithm of the concentration in molar.

{"compound": "C[C@H](NC(=O)[C@@H](N)Cc1ccc(O)cc1)C(=O)O", "pIC50": 2.33}
{"compound": "C[C@H](N)C(=O)N[C@@H](C)C(=O)O [Ala-Ala] (H-Ala-Ala-OH)", "pIC50": 2.35}

// switching to the query compound
Which pIC50 is listed for C[C@H](N)C(=O)N[C@@H](CCCCN)C(=O)O [Ala-Lys] (H-Ala-Lys-OH) ?
3.35
